- Test system: bluegrass (annual bluegrass, Poa annua)
- ASSAY_PROTOCOL: Test D controlled growth environment herbicide test, pre- and postemergence
- Assay type: in vivo
- PARTICULARS: postemergence, 62 g ai/ha; scale 0 to 100, 0 no effect, 100 complete control
Mark False for Plant response rating, Bluegrass values under 20, and True for everything at or above.

> print(dat)
                               input.smiles  group.label
1  CC(=O)Oc1c(C)nn(C)c(=O)c1-c1c(C)cc(C)c2ccccc12        False
2    COc1nn(C)c(=O)c(-c2c(C)ccc3ccccc23)c1O        False
3  C#CCOC(=O)Oc1c(C)nn(C)c(=O)c1-c1c(C)sc2ccc(C)cc12         True
4  CCOC(=O)Oc1c(C)nn(C)c(=O)c1-c1c(C)ccc2ccccc12         True
5  CC(=O)Oc1c(Br)nn(C)c(=O)c1-c1c(C)ccc2ccccc12        False
6  CCOC(=O)Oc1c(C)nn(C)c(=O)c1-c1c(C)sc2c(C)cc(C)cc12        False
7  CC(=O)Oc1c(C)nn(C)c(=O)c1-c1ccc(F)c2ccccc12        False

Hey, just so you know, these numbers are from patent US10597388B2.
